From: paper PMC4336329

tgt: human ether-à-go-go-related gene (hERG) potassium channel (human)
experimental.protocol: primary screen, population patch clamp on CHO cells stably expressing hERG; higher = less effect of the substance
Protocol: Briefly, Chinese hamster ovary (CHO) cells stably expressing the hERG channel were dislodged from tissue culture flasks and dispensed into PPC plates. […] During the recording, background leak currents were estimated by a 100 ms step to -80 mV from an initial holding potential of -70 mV and subtracted from the subsequent current measurement. The campaign was conducted in two phases using slight differences in recording protocol. […]
In all, about 310,000 compounds went through this assay and about 14,000 (4.5%) showed an effect of 50% or more. The effect is printed as a negative number. What follows is part of a selection rich in strong results, with near analogues and random picks from the rest.
measured.property: hERG current change (%, negative = inhibition) at 10uM (%)
Numeric answer only, unit % assumed.

Task: Report value only: hERG current change (%, negative = inhibition) at 10uM, human ether-à-go-go-related gene (hERG) potassium channel (human), `COc1ccc(C(=O)N2CCN(c3ccccc3Cl)CC2)cc1S(=O)(=O)NC1CC1`
Output: -32.7

Task: System human ether-à-go-go-related gene (hERG) potassium channel (human). Read-out hERG current change (%, negative = inhibition) at 10uM. Item `Fc1cccc(NCc2ccoc2)c1` . Report value.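 Note: peak tail current of the secondary pulse compared with the same well before compound.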
Output: -7.89

Task: Give the observed hERG current change (%, negative = inhibition) at 10uM of `Cc1cccc(-c2nc(CSCC(=O)NCCCN3CCOCC3)c(C)o2)c1` for human ether-à-go-go-related gene (hERG) potassium channel (human).
Output: -11.3

Task: State hERG current change (%, negative = inhibition) at 10uM on human ether-à-go-go-related gene (hERG) potassium channel (human). Entry: CCCc1cc(CNC(=O)C2CCC(=O)N(CCc3cccc(F)c3)C2)on1 (centres unmarked)
Output: -49.6

Task: Please report hERG current change (%, negative = inhibition) at 10uM with human ether-à-go-go-related gene (hERG) potassium channel (human) for item `COc1ccc(C(=O)N2CCN(c3ccc(C(C)=O)cc3F)CC2)cc1S(=O)(=O)NC1CC1` .
Output: -37.5

* * *

tgt: human ether-à-go-go-related gene (hERG) potassium channel (human, UniProt Q12809)
Sequence (Q12809 whole entry, looked up): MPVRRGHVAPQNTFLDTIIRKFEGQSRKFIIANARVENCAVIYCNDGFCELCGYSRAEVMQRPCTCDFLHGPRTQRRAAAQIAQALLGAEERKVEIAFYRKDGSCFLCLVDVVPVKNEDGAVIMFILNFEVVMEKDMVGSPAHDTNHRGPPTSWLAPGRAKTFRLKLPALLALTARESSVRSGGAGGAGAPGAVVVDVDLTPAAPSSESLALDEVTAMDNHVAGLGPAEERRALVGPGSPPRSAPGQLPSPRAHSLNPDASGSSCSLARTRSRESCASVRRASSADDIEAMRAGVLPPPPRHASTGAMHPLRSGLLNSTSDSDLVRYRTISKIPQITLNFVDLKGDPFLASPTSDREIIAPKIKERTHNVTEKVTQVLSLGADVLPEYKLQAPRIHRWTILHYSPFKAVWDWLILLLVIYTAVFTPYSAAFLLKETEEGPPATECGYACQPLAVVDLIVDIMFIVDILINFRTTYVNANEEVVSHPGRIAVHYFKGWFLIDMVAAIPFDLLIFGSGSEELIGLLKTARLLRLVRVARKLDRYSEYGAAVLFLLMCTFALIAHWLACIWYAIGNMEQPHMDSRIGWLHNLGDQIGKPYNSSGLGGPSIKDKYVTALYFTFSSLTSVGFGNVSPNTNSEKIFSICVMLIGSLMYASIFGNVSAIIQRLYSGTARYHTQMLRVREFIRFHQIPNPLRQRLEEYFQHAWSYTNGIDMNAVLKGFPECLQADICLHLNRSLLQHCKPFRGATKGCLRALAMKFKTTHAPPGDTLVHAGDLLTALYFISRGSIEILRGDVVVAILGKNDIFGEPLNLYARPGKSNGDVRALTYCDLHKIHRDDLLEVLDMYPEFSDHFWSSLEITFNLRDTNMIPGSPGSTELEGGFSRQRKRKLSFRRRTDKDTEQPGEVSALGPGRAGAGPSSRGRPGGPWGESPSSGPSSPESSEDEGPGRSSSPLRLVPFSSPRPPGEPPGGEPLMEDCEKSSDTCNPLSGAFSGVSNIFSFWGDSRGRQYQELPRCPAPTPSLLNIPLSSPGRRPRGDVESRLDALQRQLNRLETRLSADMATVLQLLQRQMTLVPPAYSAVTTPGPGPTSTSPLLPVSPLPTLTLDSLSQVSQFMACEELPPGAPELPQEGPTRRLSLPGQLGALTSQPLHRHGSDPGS
experimental.protocol: primary screen, population patch clamp on CHO cells stably expressing hERG; higher = less effect of the substance
Among all 310,000 compounds or so, about 14,000 (4.5%) showed an effect of 50% or more. Effects have a minus sign here. What follows is part of a selection rich in strong results, with near analogues and random picks from the rest.
measured.property: hERG current change (%, negative = inhibition) at 10uM (%)
Field: numeric (%). Do not append units.

// known answers, use as guide
1. O=C(N/C(=C/c1ccc(Br)cc1)C(=O)N1CCCCC1)c1ccccc1F; -40.7
2. C[C@H]1CN=C(Nc2ccccc2)N1CC1CCCCC1; 0.474
3. C[C@H]1CN=C(Nc2ccccc2)N1CCCC1CCCCC1; -62.2
4. O=C(N/C(=C\c1ccc(Br)cc1)C(=O)N1CCOCC1)c1ccccc1Cl; -2.31
5. C[C@H]1CN=C(Nc2ccccc2)N1CCC1CCCC1; -10.6

Task: Recall and state the measured hERG current change (%, negative = inhibition) at 10uM for `C[C@H]1CN=C(Nc2ccccc2)N1CCC1CCCCC1` .
Output: -46.8

Task: Return hERG current change (%, negative = inhibition) at 10uM (reported value) for this molecule: `COC(=O)c1cc(C(=O)OC)n(Cc2ccc(F)cc2)n1`
Output: -12.9

Task: Note down hERG current change (%, negative = inhibition) at 10uM recorded for `COc1ccccc1C(=O)N/C(=C\c1ccc(Br)cc1)C(=O)N1CCCC1`
Output: -48.6

Task: // fetch hERG current change (%, negative = inhibition) at 10uM given entry `O=C(N/C(=C\c1ccc(Br)cc1)C(=O)N1CCCC1)c1ccccc1F`
Output: -71.8

Task: Indicate its recorded hERG current change (%, negative = inhibition) at 10uM; the molecule in question is `CCc1ccc(OCC(=O)NNC(=O)c2c(CC)noc2C)cc1`
Output: 10.8

* * *

tgt: human ether-à-go-go-related gene (hERG) potassium channel (human, UniProt Q12809)
experimental.protocol: primary screen, population patch clamp on CHO cells stably expressing hERG; higher = less effect of the substance
Screen size: about 310,000 compounds; about 14,000 (4.5%) showed an effect of 50% or more. Effects have a minus sign here. Only a selection was taken, and strong results are over-represented in it overall.
Listing of recorded hERG current change (%, negative = inhibition) at 10uM by entry.
The figure you give is taken to be in %; do not add the unit.

1. CC(=O)Nc1ccc(S(=O)(=O)N2c3ccccc3NC(=O)CC2C)c(Cl)c1 (stereo not shown); 11.9
2. CCOc1ccc(C(=O)OCC(=O)NCCCc2ccccc2)cc1; 0.425
3. Cc1cc(C)c(NC(=O)COC(=O)C2CCCCC2)c(C)c1; 4.87

Task: Determine from records and report hERG current change (%, negative = inhibition) at 10uM for `CC(=O)N1CCc2cc(S(=O)(=O)Nc3ccc(C)cc3)ccc21`
Output: 16.9

Task: State, in one line, measured hERG current change (%, negative = inhibition) at 10uM of CCOC(=O)CC1(c2ccccc2)CCOC(C)(C)C1 (stereo not shown)
Output: 10.2

Task: Complete the entry with hERG current change (%, negative = inhibition) at 10uM for Cc1ccc2oc(=O)c3cnn(CC(=O)NC4CCCCC4C)c3c2c1 (stereo not shown)
Output: 8.43

Task: Give a short answer stating reported hERG current change (%, negative = inhibition) at 10uM for `COC(=O)c1cc(NC(=O)c2cccnc2)cc(C(=O)OC)c1` .
Output: 11

Task: Specify reported hERG current change (%, negative = inhibition) at 10uM for the compound shown: Cc1nn(CCC#N)c(NC(=O)c2ccccc2)c1P(=O)(Nc1ccc(Br)cc1)N1CCOCC1 (stereo not shown)
Output: 20.6

Task: Provide hERG current change (%, negative = inhibition) at 10uM value for the following compound: `CCCCC(=O)OCC(=O)Nc1ccc(C)c(F)c1`
Output: 14.6

Task: Specify measured hERG current change (%, negative = inhibition) at 10uM for COc1ccc(C(=O)OCC(=O)NCC2CCCO2)cc1 (stereo not shown) .
Output: 17.7

* * *

tgt: human ether-à-go-go-related gene (hERG) potassium channel (human)
experimental.protocol: primary screen, population patch clamp on CHO cells stably expressing hERG; higher = less effect of the substance
Among all 310,000 compounds or so, about 14,000 (4.5%) showed an effect of 50% or more. The effect is printed as a negative number. Only a selection was taken, and strong results are over-represented in it overall.
measured.property: hERG current change (%, negative = inhibition) at 10uM (%)
Kindly provide the numeric value in % only, without the unit symbol.

Task: Please look at this compound and report its hERG current change (%, negative = inhibition) at 10uM: `Cc1cc(C)cc(N(CC(=O)N2CCOCC2)S(=O)(=O)c2ccccc2)c1`
Output: -56.1

Task: Given `CCOc1ccc(CN(C)C(=O)CCNC(=O)c2ccco2)cc1` , respond with its hERG current change (%, negative = inhibition) at 10uM.
Output: 1.35

Task: Annotate the compound `Cc1ccc(C)c2c(N)c3c(nc12)CCCCC3.O=C(O)c1cncc(Br)c1` with its measured hERG current change (%, negative = inhibition) at 10uM.
Output: -88.4

Task: State, in one line, measured hERG current change (%, negative = inhibition) at 10uM of `Cc1cc(C)cc(N(CC(=O)N2CCC(C)CC2)S(=O)(=O)c2ccccc2)c1`
Output: -70.3

Task: Supply measured hERG current change (%, negative = inhibition) at 10uM of `CC1CCN(C(=O)CN(c2ccc3c(c2)OCCO3)S(=O)(=O)c2ccccc2)CC1` in your reply.
Output: -26.6

Task: For the compound `Cc1ccc2nc3c(c(N)c2c1)CCN3C.O=C(O)C(=O)O` , give its reported hERG current change (%, negative = inhibition) at 10uM.
Output: -33.1

Task: Give hERG current change (%, negative = inhibition) at 10uM for the following compound: `Cc1cccc2c(N)c3c(nc12)N(C)CC3.O=C(O)C(=O)O`
Output: -23.1

* * *

tgt: human ether-à-go-go-related gene (hERG) potassium channel (human, UniProt Q12809)
experimental.protocol: primary screen, population patch clamp on CHO cells stably expressing hERG; higher = less effect of the substance
The whole screen tested about 310,000 compounds, of which about 14,000 (4.5%) showed an effect of 50% or more. Effects have a minus sign here. Only a selection was taken, and strong results are over-represented in it overall.
measured.property: hERG current change (%, negative = inhibition) at 10uM (%)
Note: unit % is implicit; provide only the numeric part.

1. Cc1ccc(S(=O)(=O)NCC(c2cccnc2)N2CCc3ccccc32)cc1 (stereo not drawn); -2.1
2. Cc1ccccc1CN(C)CC(=O)NC(C)CCc1ccccc1 (stereo not drawn); -17.2
3. Cc1ccc(S(=O)(=O)NCC(c2cccnc2)N2CCN(Cc3ccccc3)CC2)cc1 (stereo not drawn); -73.1
4. Cc1c(NC(=O)C2CC(c3ccc(F)cc3)=NO2)c(=O)n(-c2ccccc2)n1C (stereo not drawn); -3.93

Task: In one line, give reported hERG current change (%, negative = inhibition) at 10uM of the entry `Cc1ccc(Nc2c([N+](=O)[O-])cc(C(=O)N3CC(=O)Nc4ccccc43)cc2[N+](=O)[O-])c(C)c1` .
Output: 15.2

Task: Please report hERG current change (%, negative = inhibition) at 10uM for the following molecule: `COC1=CC=C2[C@H]3Cc4ccc(OC)c5c4[C@@]2(CCN3C)[C@H]1O5.Cl`
Output: 10.3

Task: Look up hERG current change (%, negative = inhibition) at 10uM of Cc1ccc(S(=O)(=O)NCC(c2cccnc2)N2CCOCC2)cc1 (stereo not drawn) and report it.
Output: 5.12

Task: Specify reported hERG current change (%, negative = inhibition) at 10uM for the molecule shown: COc1ccc(S(=O)(=O)NCC(c2cccnc2)N2CCN(Cc3ccccc3)CC2)cc1 (stereo not drawn)
Output: -58.5

Task: Answer with the recorded hERG current change (%, negative = inhibition) at 10uM for the molecule listed here: `CCOCCOc1nc(C)cc(C)c1S(=O)(=O)c1ccccc1C`
Output: -4.15
